- assay-system: glutathione-S-transferase (GST) tagged LXRalpha LBD (ligand binding domain) (Homo sapiens, UniProt Q13133)
- Construct: purchased Invitrogen pv4655
- Sequence (Q13133 209-447 limits assumed): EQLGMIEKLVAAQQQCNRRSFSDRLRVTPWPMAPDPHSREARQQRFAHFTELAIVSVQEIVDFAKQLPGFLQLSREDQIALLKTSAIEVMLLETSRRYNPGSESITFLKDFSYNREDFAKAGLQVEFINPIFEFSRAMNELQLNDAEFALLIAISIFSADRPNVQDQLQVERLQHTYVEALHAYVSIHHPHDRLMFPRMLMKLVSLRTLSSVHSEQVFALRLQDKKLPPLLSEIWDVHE
- run-description: biochemical
- conditions-used: LXR alpha IP, potency (Inflection Point), compound-induced co-activator recruitment, TR-FRET
pEC50: −log10 of the molar value.
Use 6 as the dividing line for pEC50, with the line itself on the t side and lower values as f.

compound	class-label
CN(C)C(=O)c1ccc(OCCC2CC3(CCN(C(=O)C(O)(c4ccccc4)C(F)(F)F)CC3)C2)cc1Cl (single isomer, unassigned) [Example 34-1]	t
CN(C(=O)c1ccc(OCCCCC2CCN(C(=O)[C@](O)(c3ccccc3)C(F)(F)F)CC2)cc1Cl)[C@H]1CCOC1 (single isomer, unassigned) [Example 8-16]	t
CN(C)C(=O)c1ccc(OCC[C@H]2CC23CCN(C(=O)[C@@](N)(c2ccccc2)C(F)(F)F)CC3)cc1Cl (single isomer, unassigned) [Example 12-8]	f
CN(C)C(=O)c1ccc(OCCCCC2CCN(C(=O)C(O)(c3cccc(OC(F)(F)F)c3)C(F)(F)F)CC2)cc1Cl (single isomer, unassigned) [Example 3-9]	t

Please check the record O=C(c1ccc(OCCCCC2CCN(C(=O)C(O)(c3ccccc3)C(F)(F)F)CC2)cc1Cl)N1C[C@H]2CC[C@@H]1C2 (single isomer, unassigned) [Example 8-14] and state if its pEC50 is at or above 6.
t

* * *

- assay-system: glutathione-S-transferase (GST) tagged LXRalpha LBD (ligand binding domain) (Homo sapiens, UniProt Q13133)
- Construct: purchased Invitrogen pv4655
- run-description: biochemical
- conditions-used: LXR alpha IP, potency (Inflection Point), compound-induced co-activator recruitment, TR-FRET
Each entry below carries its recorded EC50.
Give your result in nM as a bare value.

A selection of reference data follows.
compound	units	observed-value
CC(COc1ccc(C(=O)N(C)C)c(Cl)c1)CC(C)C1CCN(C(=O)C(O)(c2ccccc2)C(F)(F)F)CC1 (single isomer, unassigned)	nM	284
O=C(N[C@H]1CCOC1)c1ccc(OCCCCC2CCN(C(=O)[C@](O)(c3ccccc3)C(F)(F)F)CC2)cc1Cl (single isomer, unassigned)	nM	1050

Here is another compound to look at.
Provide only the value of recorded EC50 for CNC(=O)c1ccc(OC[C@@H](C)CCC2CCN(C(=O)[C@@](O)(c3cccc(OC)c3)C(F)(F)F)CC2)cc1Cl (single isomer, unassigned)
717

* * *

Each entry below carries its recorded Emax.
- assay-system: glutathione-S-transferase (GST) tagged LXRbeta LBD (ligand binding domain) (Homo sapiens)
- Construct: purchased Invitrogen pv4658
- Sequence (P55055 222-460 limits assumed): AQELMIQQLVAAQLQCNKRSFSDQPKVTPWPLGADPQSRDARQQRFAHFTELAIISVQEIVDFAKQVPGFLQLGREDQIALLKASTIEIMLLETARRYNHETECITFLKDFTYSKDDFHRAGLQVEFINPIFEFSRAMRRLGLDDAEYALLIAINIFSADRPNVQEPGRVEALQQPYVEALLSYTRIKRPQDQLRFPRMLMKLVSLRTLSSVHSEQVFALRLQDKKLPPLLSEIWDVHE
- run-description: LanthaScreen TR-FRET Liver X Receptor Coactivator Assay, LXR beta
- Type: biochemical
- conditions-used: read-out: LXR beta actiivty at max dose, efficacy (% Emax) in relation to reference dual agonist T0901317
Give your result in % as a bare value.

A selection of reference data follows.
molecule	units	Emax
CCOc1cccc([C@@](O)(C(=O)N2CCC(C[C@H]3C[C@@H](Oc4ccc(C(=O)N(C)C)c(Cl)c4)C3)CC2)C(F)(F)F)c1 (single isomer, unassigned) [Example 37-3]	%	124
CN(C)C(=O)c1ccc(OC(F)(F)CCCC2CCN(C(=O)C(O)(c3ccccc3)C(F)(F)F)CC2)cc1Cl (single isomer, unassigned) [Example 19-1]	%	75

Provide only the value of recorded Emax for CN(C)C(=O)c1ccc(O[C@H]2C[C@@H](CC3CCN(C(=O)[C@](O)(c4cccc(C5CC5)c4)C(F)(F)F)CC3)C2)cc1Cl (single isomer, unassigned) [Example 37-5]
134

Provide only the value of recorded Emax for COc1cccc(C(O)(C(=O)N2CCC(C(C)CCCOc3ccc(C(=O)N(C)C)c(Cl)c3)CC2)C(F)(F)F)c1 (single isomer, unassigned) [Example 26-1]
65

Provide only the value of recorded Emax for CN(C)C(=O)c1ccc(O[C@H]2C[C@@H](CC3CCN(C(=O)[C@](O)(c4cc(F)cc(Cl)c4)C(F)(F)F)CC3)C2)cc1Cl (single isomer, unassigned) [Example 37-10]
140
